procedure_summary: suppressors of polyQ aggregation in yeast, 75Q-TubU reporter (AID 1593)
condition_context: Yeast 75Q polyglutamine aggregation reporter
Bridge positions count the residues as written; N and C are the ends. Square brackets hold non-standard residues; d marks the D form. Peptide text beside a SMILES is read from it. * marks the point of attachment. ξ: configuration not given here. ξDab(CH2SO3H) = NC(CCNCS(=O)(=O)O)C(=O)O; Heptanoyl(6-Me) = CC(C)CCCCC(=O)*; Dab = NCC[CH](N)C(=O)O
Binary call on score with cut-off 1: strictly below means Satisfied, and equality or higher means Not satisfied.

# compound, discrete_label
rows = [
    ("CC(=O)O[C@@H]1CC2C(C)(C)C(=O)C=C[C@]2(C)C2CC[C@@]3(C)[C@H](c4ccoc4)OC(=O)[C@H]4O[C@]43[C@@]21C (stereo partly drawn)", "Satisfied"),
    ("CC(=O)N[C@@H]1[C@@H](C(O)[C@H](O)CO)O[C@](O)(C(=O)O)C[C@@H]1O (stereo partly drawn)", "Not satisfied"),
    ("CO/N=C(/C(=O)NC1C(=O)N2C(C(=O)O)=C(COC(N)=O)CSC12)c1ccco1 (stereo not drawn)", "Not satisfied"),
    ("CO[C@@H]1[C@@H](O[C@@H]2O[C@H](C)[C@@H](O[C@H]3C[C@@](C)(O)[C@H](O)[C@H](C)O3)[C@H](N(C)C)[C@H]2O)[C@@H](CC=O)C[C@@H](C)[C@@H](O[C@H]2CC[C@H](N(C)C)[C@@H](C)O2)/C=C/C=C/C[C@H](C)OC(=O)C[C@H]1O", "Not satisfied"),
    ("C[C@]12CCC3c4ccc(O)cc4CCC3C1C[C@@H](O)[C@@H]2O (stereo partly drawn)", "Satisfied"),
    ("CC(=O)Oc1c(C)c(C)c2c(c1C)CCC(C)(CCCC(C)CCCC(C)CCCC(C)C)O2 (stereo not drawn)", "Satisfied"),
    ("C[C@@H]1CC2C3C[C@H](F)C4=CC(=O)C=C[C@]4(C)[C@@]3(F)[C@@H](O)C[C@]2(C)[C@@]1(O)C(=O)COC(=O)C(C)(C)C (stereo partly drawn)", "Not satisfied"),
    ("C[C@]12C=CC(=O)C=C1CCC1C2[C@@H](O)C[C@@]2(C)C1CC[C@]2(O)C(=O)CO (stereo partly drawn)", "Not satisfied"),
    ("CC1=C2C(=CO[C@H](C)[C@H]2C)C(=O)C(C(=O)O)=C1O", "Satisfied"),
    ("Nc1ccn(C2O[C@H](CO)[C@@H](O)[C@H]2O)c(=O)n1 (stereo partly drawn)", "Not satisfied"),
    ("CO[C@@]12[C@@H]3NC3CN1C1=C(C(=O)C(N)=C(C)C1=O)[C@@H]2COC(N)=O (stereo partly drawn)", "Not satisfied"),
    ("CCC(C)C1NC(=O)C(CCNCS(=O)(=O)O)NC(=O)C(NC(=O)C(CCNCS(=O)(=O)O)NC(=O)C(NC(=O)C(CCNCS(=O)(=O)O)NC(=O)CCCCC(C)C)C(C)O)CCNC(=O)C(C(C)O)NC(=O)C(CCNCS(=O)(=O)O)NC(=O)C(CCNCS(=O)(=O)O)NC(=O)C(C(C)CC)NC1=O (stereo not drawn) ({Heptanoyl(6-Me)}-[ξDab(CH2SO3H)]T[ξDab(CH2SO3H)][Dab][ξDab(CH2SO3H)]II[ξDab(CH2SO3H)][ξDab(CH2SO3H)]T; lactam 4-C; configuration not given here)", "Satisfied"),
]
